Recorded values, source paper PMC10397247.

The following binders are shown together with reported interaction score values.
Biological target: T1, 4H1449-bH
T1 chain: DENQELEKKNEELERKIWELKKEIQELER
Assay: two-hybrid library CCNG1;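 further: natural log of median RNA to DNA barcode read ratio; higher means stronger binding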
API note: the answer field is a bare number with no unit suffix.

1. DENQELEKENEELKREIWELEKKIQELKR [4H1222-bH] ... 1.19

Item: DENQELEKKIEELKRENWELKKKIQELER [4H1373-bH] | interaction score: -1.04

DENQELEKKIEELERKNWELKKEIQELKR [4H1338-bH] yielded interaction score of -0.182
